Biological target: rBIIa/beta 1 sodium channels (Rattus norvegicus, UniProt P04775)
Test: Electrophysiological assay, two-electrode voltage clamp in Xenopus oocytes
Settings: apparent inhibition constant from single point inhibition data; inactivated-state voltage protocol; channels expressed in Xenopus oocytes; read-out: RBIIA/β1 Ki
Note to self: Ki under 20 µM means yes (1), ties and anything higher get no (0).

CSc1ccc(-c2cncc(C(N)=O)c2)cc1 ... no (0)
NC(=O)c1ccc(-c2ccc(-c3ccccc3)cc2)nc1 [2-(2-phenylphenyl)pyridine-5-carboxamide, 2-(4-Phenylphenyl)pyridine-5-carboxamide] ... no (0)
COc1ccc(-c2cc(C(N)=O)ccn2)cc1 ... yes (1)

Item NC(=O)c1ccnc(-c2ccc(Oc3ccc(F)cc3)cc2)c1 : Ki beneath 20 µM, strictly?
yes (1)

Confirm or reject: Ki of NC(=O)c1ccc(-c2ccc3ccccc3c2)nc1 [2-(2-naphthyl)pyridine-5-carboxamide, 2-(2-Naphthyl)pyridine-5-carboxamide] lies strictly below 20 µM
no (0)

Given NC(=O)c1cccnc1-c1ccc(Oc2ccc(F)cc2)cc1 , is recorded Ki strictly lower than 20 µM?
yes (1)

====

Biological target: rBIIa/beta 1 sodium channels (Rattus norvegicus)
Test: Electrophysiological assay, two-electrode voltage clamp in Xenopus oocytes
Conditions: apparent inhibition constant from single point inhibition data; inactivated-state voltage protocol; channels expressed in Xenopus oocytes; read-out: RBIIA/β1 Ki
measurementLabel: Ki (µM)
Please state the figure in µM; there is no need to write the unit.

Examples with answers:
CCOc1ccc(-c2cncc(C(N)=O)c2)cc1 [5-(4-ethoxyphenyl)pyridine-3-carboxamide, 5-(4-Ethoxyphenyl)pyridine-3-carboxamide] ... 36.2
CCCCc1ccc(-c2cncc(C(N)=O)c2)cc1 ... 11.1
CSc1ccc(-c2ccc(C(N)=O)cn2)cc1 ... 35.6
NC(=O)c1cncc(-c2ccc(Oc3ccccc3)cc2)c1 ... 5.43

We now examine a further compound.
# Ki (compound: NC(=O)c1cncc(-c2ccc(OC(F)(F)F)cc2)c1 ) is 25
